# Test system: Klebsiella aerogenes (NCIM-2098)
We begin with a simple list: items and their reported MIC.

Query: Write MIC of Cc1ccc(S(=O)(=O)N2C(=O)CSC2c2ccccc2Br)cc1 (stereo not shown) ; system used: Klebsiella aerogenes (NCIM-2098)
Result: 64 µg/mL

Query: Given Cc1ccc(S(=O)(=O)N2C(=O)CSC2c2ccccc2O)cc1 (stereo not shown) , report its MIC on Klebsiella aerogenes (NCIM-2098).
Result: 32 µg/mL

Query: Fetch value of MIC on Klebsiella aerogenes (NCIM-2098) for Cc1ccc(S(=O)(=O)N2C(=O)CSC2c2ccc(C(C)C)cc2)cc1 (stereo not shown) .
Result: > 256 µg/mL

Query: Report its MIC with Klebsiella aerogenes (NCIM-2098) as the test system: Cc1ccc(S(=O)(=O)N2C(=O)CSC2c2ccccc2Cl)cc1 (stereo not shown)
Result: 32 µg/mL

Query: # lookup: Klebsiella aerogenes (NCIM-2098) MIC, key = Cc1ccc(S(=O)(=O)N2C(=O)CSC2c2ccccc2C)cc1 (stereo not shown)
Result: 128 µg/mL

Query: For Klebsiella aerogenes (NCIM-2098), give MIC of the listed compound: Cc1ccc(S(=O)(=O)N2C(=O)CSC2c2ccccc2F)cc1 (stereo not shown)
Result: 64 µg/mL

Query: Name the recorded MIC of Cc1ccc(S(=O)(=O)N2C(=O)CSC2c2ccc(O)cc2)cc1 (stereo not shown) , assay system Klebsiella aerogenes (NCIM-2098).
Result: 64 µg/mL

Query: Give Klebsiella aerogenes (NCIM-2098) MIC for the following compound: Cc1ccc(S(=O)(=O)N2C(=O)CSC2c2ccccc2)cc1 (stereo not shown)
Result: > 256 µg/mL

Query: Provide MIC, recorded with Klebsiella aerogenes (NCIM-2098), of Cc1ccc(C2SCC(=O)N2S(=O)(=O)c2ccc(C)cc2)cc1 (stereo not shown)
Result: > 256 µg/mL

Let us move to another entry and its MIC.
Query: Send back Klebsiella aerogenes (NCIM-2098) MIC of Cc1ccc(S(=O)(=O)N2C(=O)CSC2c2cccc(F)c2)cc1 (stereo not shown) only.
Result: 32 µg/mL
